- Assay comment: Pharmacokinetic evaluation test using mice
- Type: in vivo
- Experimental context: mouse, plasma, iv, 1 mg/kg, single intravenous 1.0 mg/kg, 6 hr, read-out: Blood concentration, individual mice 1-3
Experimental readout: concentration at 6 hr (ng/mL)
Answer in ng/mL, number only, no unit symbol.

Documented concentration at 6 hr of `CN[C@H](C(=O)N[C@H](C(=O)N(C)[C@H](/C=C(\C)C(=O)O)C(C)C)C(C)(C)C)C(C)(C)c1cn(C)c2ccccc12` : 18.9

====

- Assay comment: Pharmacokinetic evaluation test using mice
- Assay type: in vivo
- Experimental context: mouse, plasma, iv, 1 mg/kg, single intravenous 1.0 mg/kg, 6 hr, read-out: Blood concentration, mean value
- Procedure: A pharmacokinetic evaluation test was performed by single intravenous administration of Example 4 at a dose of 1.0 mg/kg to mice. A calibration curve was made from measurements of Example 4 with known concentration, and by interpolating measurements of each specimen to this, the amount of the compound contained in unit volume of each plasma was calculated using LC-MS. Pharmacokinetics of compound 14 and hemiasterlin were similarly evaluated. […]
Experimental readout: concentration at 6 hr (ng/mL)
Reply with just the number (in ng/mL).

The compound CN[C@H](C(=O)N[C@H](C(=O)N(C)[C@H](/C=C(\C)C(=O)O)C(C)C)C(C)(C)C)C(C)(C)c1cn(C)c2ccccc12 [Hemiasterlin, hemiasterlin] showed concentration at 6 hr equal to 22.4

====

- Assay comment: in vitro
- Experimental context: PAMPA, pH 7.4
Consider the following compounds and their measured Papp readings.

Compound: C/C(=C\[C@H](C(C)C)N(C)C(=O)[C@@H](NC(=O)[C@H]1CCCCN1C(C)C)C(C)(C)C)C(=O)N[C@H](CCC(=O)O)C(=O)O
Papp: < 0.1 ×10⁻⁶ cm/s

Short answer for `CN[C@H](C(=O)N[C@H](C(=O)N(C)[C@H](/C=C(\C)C(=O)N[C@H](CCC(=O)O)C(=O)O)C(C)C)C(C)(C)C)C(C)(C)c1cccc(-c2ccccc2)c1` : Papp was < 0.1 ×10⁻⁶ cm/s

The compound identified as `CN[C@H](C(=O)N[C@H](C(=O)N(C)[C@H](/C=C(\C)C(=O)N[C@H](CCC(=O)O)C(=O)O)C(C)C)C(C)(C)C)C(C)(C)c1cccc(Br)c1` registered its Papp at < 0.1 ×10⁻⁶ cm/s

// recorded Papp for CNC(C(=O)N[C@H](C(=O)N(C)[C@H](/C=C(\C)C(=O)N[C@H](CCC(=O)O)C(=O)O)C(C)C)C(C)(C)C)C(C)(C)c1ccc(O)cc1 (some centres unmarked) : 0.5 ×10⁻⁶ cm/s

Reported Papp of `CN[C@H](C(=O)N[C@H](C(=O)N(C)[C@H](/C=C(\C)C(=O)N[C@H](CCC(=O)O)C(=O)O)C(C)C)C(C)(C)C)C(C)(C)c1cccc(C)c1` : < 0.1 ×10⁻⁶ cm/s

====

Recorded Microtubule polymerization rate (%), one value per entry.
- Target entity: porcine tubulin (Sus scrofa, UniProt P02550+P02554)
- Sequence (P02554 whole entry): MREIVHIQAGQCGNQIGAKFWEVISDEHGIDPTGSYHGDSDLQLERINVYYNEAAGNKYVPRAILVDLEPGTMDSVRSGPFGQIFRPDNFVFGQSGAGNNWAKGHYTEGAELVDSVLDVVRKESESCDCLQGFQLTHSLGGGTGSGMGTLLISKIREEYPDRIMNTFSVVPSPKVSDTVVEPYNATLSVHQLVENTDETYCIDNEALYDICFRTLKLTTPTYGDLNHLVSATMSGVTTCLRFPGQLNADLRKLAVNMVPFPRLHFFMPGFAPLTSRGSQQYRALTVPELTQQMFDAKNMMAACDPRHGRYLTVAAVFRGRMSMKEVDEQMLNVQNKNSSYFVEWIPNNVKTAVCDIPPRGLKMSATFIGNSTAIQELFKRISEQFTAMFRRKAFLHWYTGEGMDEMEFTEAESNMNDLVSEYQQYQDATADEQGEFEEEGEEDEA
- Sequence (P02550 whole entry): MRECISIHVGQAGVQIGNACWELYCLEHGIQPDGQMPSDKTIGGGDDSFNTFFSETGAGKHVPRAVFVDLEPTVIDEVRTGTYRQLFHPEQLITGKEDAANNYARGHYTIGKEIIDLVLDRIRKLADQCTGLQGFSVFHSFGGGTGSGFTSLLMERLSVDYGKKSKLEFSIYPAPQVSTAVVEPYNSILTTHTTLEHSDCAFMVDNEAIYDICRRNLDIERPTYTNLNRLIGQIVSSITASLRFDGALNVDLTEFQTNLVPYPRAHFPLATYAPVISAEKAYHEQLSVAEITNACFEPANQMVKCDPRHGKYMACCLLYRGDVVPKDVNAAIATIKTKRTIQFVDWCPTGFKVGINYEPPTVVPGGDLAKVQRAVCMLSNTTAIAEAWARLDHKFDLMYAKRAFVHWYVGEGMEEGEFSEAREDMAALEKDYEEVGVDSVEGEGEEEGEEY
- Assay comment: Activity for inhibiting microtubule polymerization using porcine tubulins (2), microtubule polymerization rate
- Experimental context: 60 minutes after assay initiation; relative to wells without compound; lower = stronger inhibition
*1 amine or outer side, *2 acyl side, *3 side chain or, on linkers, in order; H or OH if unused. Where a SMILES comes first, the peptide text is derived from it. [ ]: non-standard residue; d: D form. NMeTrp(1,β,β-Me3) = CN[C@H](C(=O)O)C(C)(C)c1cn(C)c2ccccc12; X1 = C/C(=C\[C@H](C(C)C)N(C)[*:1])C(=O)[*:2]; Tle = CC(C)(C)[C@H](N)C(=O)O
Quote the value and follow it with the unit of measurement.

Compound: CN[C@H](C(=O)N[C@H](C(=O)N(C)[C@H](/C=C(\C)C(=O)N[C@@H](CC(=O)O)C(=O)N[C@@H](CC(=O)O)C(=O)N[C@@H](CC(=O)O)C(=O)N[C@@H](CC(=O)O)C(=O)N[C@@H](CC(=O)O)C(=O)O)C(C)C)C(C)(C)C)C(C)(C)c1cn(C)c2ccccc12 [Example 3] (H-[NMeTrp(1,β,β-Me3)][Tle][X1]DDDDD-OH)
Microtubule polymerization rate (%): 3%
//
Compound: CN[C@H](C(=O)N[C@H](C(=O)N(C)[C@H](/C=C(\C)C(=O)N[C@@H](CCC(=O)N[C@@H](CCC(=O)O)C(=O)O)C(=O)N[C@@H](CCC(=O)O)C(=O)O)C(C)C)C(C)(C)C)C(C)(C)c1cn(C)c2ccccc12 [Example 47] (H-[NMeTrp(1,β,β-Me3)][Tle][X1]E(Glu)E-OH)
Microtubule polymerization rate (%): 3%

Value sought: Microtubule polymerization rate (%), system porcine tubulin (Sus scrofa, UniProt P02550+P02554), item `C/C(=C\[C@H](C(C)C)N(C)C(=O)[C@@H](NC(=O)[C@@H](N)C(C)(C)c1cn(C)c2ccccc12)C(C)(C)C)C(=O)N[C@H](CCC(=O)O)C(=O)O` . Result: 4%

These data points were gathered from patent US12018093B2.
